Known pKd of a selection of sequences
# TEST_TARGET: anti-CD28 scFv (SEQ ID NO: 9)
# ASSAY_NAME: Kinetic binding of anti-CD28 scFv to peptides, bio-layer interferometry (Octet RED96)
# DETAILS: Table 36; anti-CD28 scFv titrated 100-12.5 nM, 200 nM peptide loaded
pKd: −log10 of the molar value.
REPORTED_METRIC: pKd

[[record]]
sequence_record = "MDWCPIDLWNECFF [Peptide-31]"
reported_metric = "pKd"
data_value = 7.14

[[record]]
sequence_record = "MDWCPRYLWHVCFA [Peptide-48]"
reported_metric = "pKd"
data_value = 7.68

[[record]]
sequence_record = "MDWCPRDMWSECFA [Peptide-43]"
reported_metric = "pKd"
data_value = 6.72

[[record]]
sequence_record = "MDWCPIHLWHVCFN [Peptide-32]"
reported_metric = "pKd"
data_value = 7.30

[[record]]
sequence_record = "MHWCPVDLWYLCYN [Peptide-49]"
reported_metric = "pKd"
data_value = 7.68

[[record]]
sequence_record = "MDWCPRDLWVHCFA [Peptide-41]"
reported_metric = "pKd"
data_value = 7.37

[[record]]
sequence_record = "MNWCPKDIWYLCFN [Peptide-34]"
reported_metric = "pKd"
data_value = 7.05


* * *

Known Background signal of a selection of substances
# Test system: anti-CD28 scFv
# Sequence (as listed by the source): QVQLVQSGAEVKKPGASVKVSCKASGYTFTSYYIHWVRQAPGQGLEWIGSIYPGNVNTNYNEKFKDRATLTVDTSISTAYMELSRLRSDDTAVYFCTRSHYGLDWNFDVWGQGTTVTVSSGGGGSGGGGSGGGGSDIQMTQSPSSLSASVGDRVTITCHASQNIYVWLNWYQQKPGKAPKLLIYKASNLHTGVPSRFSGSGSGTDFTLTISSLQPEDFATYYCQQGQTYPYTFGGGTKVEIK
# ASSAY_NAME: Panning ELISA of clonal phage, anti-CD28 scFv, with or without CD28 soluble protein (Peptide-9 library)
# Type: binding
# DETAILS: Peptide-9 library, background (no anti-CD28 scFv)
Where no end group is shown, it is not given here.
REPORTED_METRIC: Background signal

[[record]]
substance = "Phage-135 (MDWCPKFLWHECFS)"
reported_metric = "Background signal"
data_value = 0.065

[[record]]
substance = "Phage-117 (MDWCPRYLWFECFS)"
reported_metric = "Background signal"
data_value = 0.079

[[record]]
substance = "Phage-124 (MDWCPRPLWDMCFF)"
reported_metric = "Background signal"
data_value = 0.063

[[record]]
substance = "Phage-111 (MDWCPFYLWNECFY)"
reported_metric = "Background signal"
data_value = 0.099

[[record]]
substance = "Phage-53 (MDWCPMHLWNKCFN; not fully specified; cysteine pairing not given here)"
reported_metric = "Background signal"
data_value = 0.071

[[record]]
substance = "Phage-403 (MSWCPWDMWNECFA)"
reported_metric = "Background signal"
data_value = 0.069


* * *

# System: anti-CD28 scFv
# ASSAY_NAME: Panning ELISA of clonal phage, anti-CD28 scFv, with or without CD28 soluble protein (Peptide-9 library)
# Format: binding
# DETAILS: Peptide-9 library, background (no anti-CD28 scFv)
Where no end group is shown, it is not given here.
Background signal below 0.07 gives FALSE; Background signal at or above it gives TRUE.

[[record]]
substance = "Phage-420 (MFWCPSTMWNRCFD)"
test_target = "anti-CD28 scFv"
class_label = "FALSE"

[[record]]
substance = "Phage-47 (MAWCPVYLWHECFN; not fully specified; cysteine pairing not given here)"
test_target = "anti-CD28 scFv"
class_label = "TRUE"

[[record]]
substance = "Phage-99 (MDWCPRYLWNMCFH)"
test_target = "anti-CD28 scFv"
class_label = "TRUE"

[[record]]
substance = "Phage-109 (MDWCPKNLWHVCFN)"
test_target = "anti-CD28 scFv"
class_label = "TRUE"

[[record]]
substance = "Phage-409 (LHWCPITMWTYCYY)"
test_target = "anti-CD28 scFv"
class_label = "TRUE"

[[record]]
substance = "Phage-40 (MDWCPIDMWDQCFN; not fully specified; cysteine pairing not given here)"
test_target = "anti-CD28 scFv"
class_label = "FALSE"

[[record]]
substance = "Phage-112 (MHWCPRALWDVCYN)"
test_target = "anti-CD28 scFv"
class_label = "TRUE"

[[record]]
substance = "Phage-434 (IVWCPTTQWNRCAT)"
test_target = "anti-CD28 scFv"
class_label = "TRUE"

[[record]]
substance = "Phage-49 (MSWCPIHLWNECFN; not fully specified; cysteine pairing not given here)"
test_target = "anti-CD28 scFv"
class_label = "TRUE"

[[record]]
substance = "Phage-115 (MDWCPRYLWHECFN)"
test_target = "anti-CD28 scFv"
class_label = "TRUE"

[[record]]
substance = "Phage-433 (MAWCPWAQFDECLA)"
test_target = "anti-CD28 scFv"
class_label = "TRUE"

[[record]]
substance = "Phage-45 (MDWCPRPLWHECFS; not fully specified; cysteine pairing not given here)"
test_target = "anti-CD28 scFv"
class_label = "TRUE"

[[record]]
substance = "Phage-134 (MDWCPSYLWHECFA)"
test_target = "anti-CD28 scFv"
class_label = "TRUE"

[[record]]
substance = "Phage-410 (IDWCPRYMWHECFF)"
test_target = "anti-CD28 scFv"
class_label = "TRUE"

[[record]]
substance = "Phage-62 (MDWCPSYLWNECFF; left off: large carriers)"
test_target = "anti-CD28 scFv"
class_label = "FALSE"

[[record]]
substance = "Phage-407 (MNWCPIHMWNQCFA)"
test_target = "anti-CD28 scFv"
class_label = "TRUE"

[[record]]
substance = "Phage-425 (MDLCPTAMWNRCFY)"
test_target = "anti-CD28 scFv"
class_label = "FALSE"

[[record]]
substance = "Phage-129 (MDWCPSYLWTVCFA)"
test_target = "anti-CD28 scFv"
class_label = "FALSE"

[[record]]
substance = "Phage-411 (MSWCPRFMWHECFN)"
test_target = "anti-CD28 scFv"
class_label = "TRUE"

